# measurementProtocol: Experimental determination of lipophilicity as RM values (RP-TLC)
# Format: physicochemical
# experimentalContext: methanol/water 70/30 v/v, 24 °C, SD < 10%
propertyName: RM

O=C(/C=C/c1ccccc1)c1ccc(Cl)cc1; −0.50

(I) O=c1[nH]c(=S)[nH]c2nc(-c3ccc(Cl)cc3)cc(-c3ccc(Cl)cc3Cl)c12
(II) O=c1[nH]c(=S)[nH]c2nc(-c3ccc(Cl)cc3)cc(-c3ccccc3)c12
### Prompt Lower value for measured RM? Options: I , II Please indicate the selected item by its label.
### Response II
(II: −0.87, I: −0.48)

Provenance of the data: paper PMC10180197
